# Tested on: human spermatozoa
# EXPERIMENT SUMMARY: progressively motile sperm, percent change vs DMSO (non-capacitating); higher = more of the measured sperm population than DMSO, for viability, fewer PI-positive (dead) cells than DMSO; extreme values may be limits of the assay
# ASSAY SETUP: incubation time: 10min incubation, 9.99 µM
Where a name gives a salt, the structure may show the parent alone.
ENDPOINT NAME: progressively motile sperm (%)
Write the value in % as a bare number.

Worked examples follow.
| COMPOUND | ASSAYED SYSTEM | ENDPOINT UNIT | NUMBER |
| --- | --- | --- | --- |
| N=C(N)Nc1ccc(C(=O)Oc2ccc3cc(C(=N)N)ccc3c2)cc1 [Nafamostat] | human spermatozoa | % | -2.19 |
| CCCCC(CC)C/N=C(\N)N/C(N)=N/CCCCCC/N=C(\N)N/C(N)=N/CC(CC)CCCC (stereo unspecified) [Alexidine dihydrochloride] | human spermatozoa | % | -63.3 |
| CCCCCCCCOc1ccc(-c2noc([C@@H]3CCCN3C(=N)N)n2)cc1C(F)(F)F | human spermatozoa | % | 19.2 |
| Nc1nc(Cl)nc2c1ncn2[C@@H]1O[C@H](CO)[C@@H](O)[C@@H]1F [Clofarabine] | human spermatozoa | % | 21.7 |
| CNS(=O)(=O)c1ccccc1Nc1nc(Nc2ccc(C3CCN(C)CC3)cc2OC)ncc1Cl [Compound 19] | human spermatozoa | % | -91.3 |

Continue with the next compound.
## Task Report progressively motile sperm for C=CC[C@@H]1/C=C(\C)C[C@H](C)C[C@H](OC)[C@H]2O[C@@](O)(C(=O)C(=O)N3CCCC[C@H]3C(=O)O[C@H](/C(C)=C/[C@@H]3CC[C@@H](O)[C@H](OC)C3)[C@H](C)[C@@H](O)CC1=O)[C@H](C)C[C@@H]2OC [Tacrolimus] please.
## Result 5.82

###

# Test system: human spermatozoa;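 further: pooled live human sperm from at least 3 donors, tracked by automated microscopy in 0.5 s time-lapse movies, compounds at 10 and 30 µM, versus median of 16 DMSO wells per plate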
# EXPERIMENT SUMMARY: progressively motile sperm, percent change vs DMSO (non-capacitating); higher = more of the measured sperm population than DMSO, for viability, fewer PI-positive (dead) cells than DMSO; extreme values may be limits of the assay
# ASSAY SETUP: incubation time: 6h incubation, 29.9 µM
ENDPOINT NAME: progressively motile sperm (%)
Write the value in % as a bare number.

Worked examples follow.
| MOLECULE | progressively motile sperm (%) |
| --- | --- |
| COc1cn(-c2ccc(-n3cccn3)cc2F)nc(-c2ccnn2-c2ccccc2)c1=O | 44 |
| Cc1ccc(S(=O)(=O)c2c(N)n(CC(O)c3ccc([N+](=O)[O-])cc3)c3nc4ccccc4nc23)cc1 (stereo not given) | 24.6 |
| C[C@]1(O)C[C@@H](c2nc(-c3ccc4ccc(-c5ccccc5)nc4c3)c3c(N)nccn32)C1 | 79.2 |

Continue with the next molecule.
## Task Report progressively motile sperm for CC(C)(C)c1ccc(S(=O)(=O)Nc2cnc3[nH]c(C(=O)N[C@H]4CCC[C@H]4O)c(-c4ccccc4)c3c2)cc1 please.
## Result -14.5

###

# Tested on: HeLa
# EXPERIMENT SUMMARY: HeLa toxicity: nuclei-count effect normalised to DMSO (DMSO = 0); higher = more features changed / larger toxic effect
# ASSAY SETUP: incubation time: 24h incubation; 29.9 µM
ENDPOINT NAME: HeLa toxicity: nuclei-count effect normalised (%)
Write the value in % as a bare number.

| COMPOUND | NUMBER |
| --- | --- |
| CNC(=O)c1ccccc1Nc1nc(Nc2ccc(N3CCOCC3)cc2OC)ncc1Cl | 83.4 |
| C=C[C@@]1(C)CC(=O)[C@@]2(O)[C@](C)(O1)[C@@H](OC(C)=O)[C@@H](O)C1C(C)(C)CC[C@H](O)[C@@]12C (stereo partly specified) | -1.47 |
| Nc1ncnc2c1c(-c1cccc(OCc3ccccc3)c1)cn2[C@H]1C[C@@H](CN2CCC2)C1 | 99.5 |
| c1cnc2c(c1)ccc1cccnc12 | 43 |
| Nc1nc(Cl)nc2c1ncn2[C@@H]1O[C@H](CO)[C@@H](O)[C@@H]1F | 47.5 |
| Oc1c(Cl)cc(Cl)cc1Sc1cc(Cl)cc(Cl)c1O | 21.5 |
| O=C(O)c1cccnc1Nc1cccc(C(F)(F)F)c1 | -2.27 |
| CC(C)(O)c1ccn2c(-c3ccc(F)c(-c4ccc(F)cc4C#N)c3)cnc2c1F | 27.2 |

## Task Report HeLa toxicity: nuclei-count effect normalised for CCCCCCCCOc1ccc(-c2noc([C@@H]3CCCN3C(=N)N)n2)cc1C(F)(F)F please.
## Result 82.8

## Task Report HeLa toxicity: nuclei-count effect normalised for COc1cc2nc(N(C)CCCNC(=O)C3CCCO3)nc(N)c2cc1OC (stereo unspecified) please.
## Result 0.668

Reference for the values: the supplement of paper PMC10878532
